FYI, the data here is from patent US20110275122A1.

Target: T1, c-mpl receptor (Homo sapiens (Human), UniProt P40238 26-491, The MPL used for panning was biotinylated; the biotin site is not stated and is not carried by the letters.)
T1 construct: also called TPO receptor
T1 sequence: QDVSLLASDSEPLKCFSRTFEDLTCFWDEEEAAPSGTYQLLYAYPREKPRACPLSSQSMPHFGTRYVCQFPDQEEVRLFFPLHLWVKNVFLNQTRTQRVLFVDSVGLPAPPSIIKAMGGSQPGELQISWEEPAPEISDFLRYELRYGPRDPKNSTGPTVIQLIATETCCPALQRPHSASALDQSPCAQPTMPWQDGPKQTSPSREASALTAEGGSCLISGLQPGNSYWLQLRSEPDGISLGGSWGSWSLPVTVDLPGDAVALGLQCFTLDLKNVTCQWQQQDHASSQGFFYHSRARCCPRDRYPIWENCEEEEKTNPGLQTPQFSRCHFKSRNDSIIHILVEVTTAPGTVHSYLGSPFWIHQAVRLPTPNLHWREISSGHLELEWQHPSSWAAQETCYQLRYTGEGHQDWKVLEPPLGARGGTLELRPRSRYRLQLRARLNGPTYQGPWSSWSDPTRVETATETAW
Experiment: phage-ELISA
reported metric: Relative activity
Answer field: number only, no words.

Below: 3 binders and their reported Relative activity.
SEQ ID NO: 254 (peptide) peptide: IEGRWPPPQFPVTEHHSLERVGRRPPNAQMPQSIFICGQNEGPTFQYCQRCLREHS = 137
IEGPTFKQWQRWRKMHS [SEQ ID NO: 253] = 144
IEGPTFKQWQAARMHHS [SEQ ID NO: 265] = 122

Now consider a different binder.
Relative activity for IEGPTFKQWQRWLKYHS [SEQ ID NO: 325] is 13.5
